molecular target: T1, GARP-TGF-β complex (293-GARP/TGFβ stably transfected cells) (UniProt Q14392 20-662; P01137 30-390); experiment: FACS on 293-GARP/TGFβ cells
T1 construct: whole, on cells; Complex of GARP and (latent) TGF-β on the cell surface; also called 293-GARP/TGFβ cell; 293F-GAPR/TGFβ/αvβ6 cells
T1 sequence (Q14392 20-662, chain 1 of 2): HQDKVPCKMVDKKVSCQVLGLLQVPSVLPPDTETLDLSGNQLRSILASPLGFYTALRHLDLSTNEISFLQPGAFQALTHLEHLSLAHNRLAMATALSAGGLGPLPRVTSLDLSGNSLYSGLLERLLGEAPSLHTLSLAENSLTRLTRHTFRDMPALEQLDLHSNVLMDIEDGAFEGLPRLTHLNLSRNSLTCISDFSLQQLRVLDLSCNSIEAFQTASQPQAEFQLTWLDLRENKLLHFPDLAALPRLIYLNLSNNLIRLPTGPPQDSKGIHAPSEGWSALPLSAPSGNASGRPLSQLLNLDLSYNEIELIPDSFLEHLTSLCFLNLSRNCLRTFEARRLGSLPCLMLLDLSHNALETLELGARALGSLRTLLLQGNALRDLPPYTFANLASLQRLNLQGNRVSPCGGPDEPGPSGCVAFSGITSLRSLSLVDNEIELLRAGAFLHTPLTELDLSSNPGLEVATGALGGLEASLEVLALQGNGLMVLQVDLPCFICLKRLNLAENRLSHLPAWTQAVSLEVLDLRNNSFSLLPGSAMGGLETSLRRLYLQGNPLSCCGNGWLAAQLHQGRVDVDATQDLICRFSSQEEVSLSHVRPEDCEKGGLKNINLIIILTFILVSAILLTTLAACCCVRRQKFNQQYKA
T1 sequence (P01137 30-390, chain 2 of 2): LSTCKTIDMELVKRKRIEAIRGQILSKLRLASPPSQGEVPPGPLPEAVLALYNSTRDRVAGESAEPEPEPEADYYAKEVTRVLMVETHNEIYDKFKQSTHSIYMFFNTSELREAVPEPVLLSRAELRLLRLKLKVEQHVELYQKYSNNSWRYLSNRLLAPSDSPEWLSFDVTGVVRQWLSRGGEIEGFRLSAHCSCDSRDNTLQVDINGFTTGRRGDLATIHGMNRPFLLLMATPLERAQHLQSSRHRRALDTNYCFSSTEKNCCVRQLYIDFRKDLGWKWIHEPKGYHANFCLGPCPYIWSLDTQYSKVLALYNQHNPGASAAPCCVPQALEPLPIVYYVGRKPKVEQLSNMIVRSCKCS
Provide the reported pEC50 of each item.
Lab note — pEC50 values are minus log10 of concentrations in M.

Item antibody m305 (antibody, V domains shown) VH: EVQLQQSGPELVKPGASVKIPCKTSGYTFTDYNMNWVKQSHGKSLEWIGDINPYSGGTIYNQKFKGKAILTVDKSSSTAYMELRSLTSEDTGIYYCARVSKGSGDYWGQGTTLTVSS VL: DIQMTQSPSSLSASLGERVSLTCRASQEISGYLSWLQQKPDGTIKRLIYAASTLDSGVPKRFSGSRSGSDYSLTISSLESEDFADYYCLQYASYPTCTFGGGTKLEIK has what recorded pEC50?
8.39

Entry antibody m301 (antibody, V domains shown) VH: QVQLKESGPGLVAPSQSLSITCTVSGFSLTTYGVTWVRQPPGKGLQWLGLIWGDGTTDYHSTFISRLSISKDKSKNQVFFKLNSLQTDDTATYYCASYYFAMHYWGQGTSVTVSS VL: DIVMSQSPSSLAVSAGEKVTMNCKSSQSLLNSRTQKNYLAWYQQKPGQSPKLLIYWASTRESGVPDRFTGSGSGTDFTLTIISVQAEDLAVYYCKQSYNLWTFGGGTKLEIK : reported pEC50 = ?
8.60
